The values you see were collected from PubChem BioAssay AID1259407.

# Tested on: CCRIS mutagenicity, Ames/micronucleus/aberration tests
# Protocol notes: CCRIS mutagenicity studies
# Protocol conditions: Test System: CHINESE HAMSTER OVARY; Strain/Indicator: CHO-K1-BH4 (HGPRT)/6-THIOGUANINE; Metabolic Activation: S-9
Calls of active or inactive are those of the source. No rule for the calls is given here.
Please reply with one of these outcomes: active, inactive

Smiles entry	Assigned label
Nc1ccccc1C(=O)O	inactive
NCCNc1cccc2ccccc12	inactive
ClCc1ccccn1	inactive
Nc1ccc([N+](=O)[O-])cc1N	inactive

Please look at the following molecule next.
Can you look up the reported call for COP(=O)(OC)OC=C(Cl)Cl for me?
active

* * *

# System: CCRIS mutagenicity, Ames/micronucleus/aberration tests
# Protocol notes: CCRIS mutagenicity studies
# Protocol conditions: Test System: AMES SALMONELLA TYPHIMURIUM; Strain/Indicator: TA100; Metabolic Activation: NONE; Method: PREINCUBATION
Calls of active or inactive are those of the source. How the calls were made is not given here.
Respond only with the outcome that fits, drawn from active, inactive

Use these answered entries as a reference point.
Molecule	Target	Assigned label
O=[N+]([O-])c1ccccc1CO	CCRIS mutagenicity, Ames/micronucleus/aberration tests	inactive
COC12OOC1(C)Oc1ccccc12 (centres undefined)	CCRIS mutagenicity, Ames/micronucleus/aberration tests	active
CCOP(=S)(OCC)Oc1nc(Cl)c(Cl)cc1Cl	CCRIS mutagenicity, Ames/micronucleus/aberration tests	inactive
Oc1cc(O)c2cc(O)c(-c3cc(O)c(O)c(O)c3)[o+]c2c1	CCRIS mutagenicity, Ames/micronucleus/aberration tests	inactive
CN1C[C@H](C(=O)N[C@]2(C)O[C@@]3(O)[C@@H]4CCCN4C(=O)[C@H](Cc4ccccc4)N3C2=O)C=C2c3cccc4[nH]cc(c34)C[C@H]21	CCRIS mutagenicity, Ames/micronucleus/aberration tests	inactive
COc1ccc(CN(CCN(C)C)c2ccccn2)cc1	CCRIS mutagenicity, Ames/micronucleus/aberration tests	inactive
O=[N+]([O-])c1cccc2c([N+](=O)[O-])cccc12	CCRIS mutagenicity, Ames/micronucleus/aberration tests	active
Cc1ccc([N+](=O)[O-])c(C)c1	CCRIS mutagenicity, Ames/micronucleus/aberration tests	inactive

Attention now shifts to the item below.
For C=C(C)c1ccccc1 , what call appears in the results of this test?
inactive

* * *

# Tested on: CCRIS mutagenicity, Ames/micronucleus/aberration tests
# Protocol notes: CCRIS mutagenicity studies
# Protocol conditions: Test System: AMES SALMONELLA TYPHIMURIUM; Strain/Indicator: TA1535; Metabolic Activation: NONE; Method: STANDARD PLATE
Active and inactive are the calls of the source. How the calls were made is not given here.
Your answer must be one of the following: 1.0 (active), 0.0 (inactive)

Compound	Assigned label
C[C@]12C/C(=C/O)C(=O)C[C@@H]1CC[C@@H]1[C@@H]2CC[C@@]2(C)[C@H]1CC[C@]2(C)O	0.0

Query: recorded result category for O=C(O)CCc1ccccc1 in this test
0.0

Test call, this compound: CC(=O)C(Cl)(Cl)Cl
1.0

Per the records of this test, what outcome belongs to O=P(O)(O)OCC(O)CO (stereo not drawn) ?
0.0

For O=C1c2cccc(O)c2C(=O)c2cccc(O)c21 , what call appears in the results of this test?
0.0

Hey, what did the test say about CSCCC(NC(=O)COc1cc(Cl)c(Cl)cc1Cl)C(=O)O (stereo not drawn) ?
0.0

Can you look up the reported call for C[N+]1(C)CCOCC1 for me?
0.0

What did the test return for CCCCC(CC)COC(=O)c1ccc(C(=O)OCC(CC)CCCC)cc1 (stereo not drawn) ?
0.0

Give the logged outcome of this assay for the following compound: C=CCc1ccc2c(c1)OCO2
0.0

Called result for CCC/C=N/O
0.0

What classification did CCN(CC)c1cc(NC(C)=O)c(N=Nc2c(Br)cc([N+](=O)[O-])cc2[N+](=O)[O-])cc1OC end up with in this test?
0.0

Can you look up the reported call for CN(Cc1cccc(C(F)(F)F)c1)N=O for me?
0.0

Hi team, can someone confirm the assay call for CN(C)CCCNc1c2ccccc2nc2cccc([N+](=O)[O-])c12 ?
0.0

* * *

# Test system: CCRIS mutagenicity, Ames/micronucleus/aberration tests
# Protocol notes: CCRIS mutagenicity studies
# Protocol conditions: Test System: AMES SALMONELLA TYPHIMURIUM; Strain/Indicator: TA1537; Metabolic Activation: RAT, LIVER, S-9, AROCLOR 1254; Method: STANDARD PLATE
Active and inactive are the calls of the source. No rule for the calls is given here.
Respond with a class label; see active, inactive

# example entries with known answers
Compound	Target	Assigned label
FC(F)(F)c1ccccc1Cl	CCRIS mutagenicity, Ames/micronucleus/aberration tests	inactive
c1cc2cccc3c4cccc5cccc(c(c1)c23)c54	CCRIS mutagenicity, Ames/micronucleus/aberration tests	active
O=Cc1cccc2cccnc12	CCRIS mutagenicity, Ames/micronucleus/aberration tests	inactive
C[C@@H]1Cc2c(Cl)cc(C(=O)NC(Cc3ccccc3)C(=O)O)c(O)c2C(=O)O1 (stereo partly drawn)	CCRIS mutagenicity, Ames/micronucleus/aberration tests	inactive
CCOCCc1c(-c2ccccc2)nc(N)n2ncnc12	CCRIS mutagenicity, Ames/micronucleus/aberration tests	inactive

Per the records of this test, what outcome belongs to CN1CCC(=C2c3ccccc3C=Cc3ccccc32)CC1 ?
inactive

Tell me the recorded outcome of this test for C#C[C@]1(O)CC[C@H]2[C@@H]3CCC4=CC(=O)CC[C@@H]4[C@H]3CC[C@@]21CC .
inactive

Entry CCOC(=O)C1C(C=C(C)C)C1(C)C (stereo not drawn) : call = ?
inactive

What call does the record list for CCCCCON=O ?
inactive

Which result was noted for this compound in the test: O=C1c2cccc(O)c2C(=O)c2cccc(O)c21
active

Recorded call for ClCC1CO1 (stereo not drawn) ?
inactive

So what was the verdict on CN(C)c1ccc2cc3ccc(N(C)C)cc3nc2c1 in this test?
active

Assay result, entry CNCCCN1c2ccccc2CCc2ccccc21 — outcome?
inactive

* * *

# Test system: CCRIS mutagenicity, Ames/micronucleus/aberration tests
# Protocol notes: CCRIS mutagenicity studies
# Protocol conditions: Test System: AMES SALMONELLA TYPHIMURIUM; Strain/Indicator: TA98; Metabolic Activation: NONE; Method: SPOT TEST
The source made the active and inactive calls. The rule behind the calls is not given here.
Parameter: mutagenic call

Below: 5 compounds and their reported mutagenic call.
Compound	Parameter	Endpoint value
CC1(C)O[C@H]1COc1c2ccoc2cc2oc(=O)ccc12	mutagenic call	inactive; negative
CC(C)(O)[C@H]1Cc2cc3ccc(=O)oc3cc2O1	mutagenic call	active; positive
CC(C)=CCOc1c2occc2cc2ccc(=O)oc12	mutagenic call	active; positive
C=CC(C)(C)c1cc2cc3c(cc2oc1=O)OC(C(C)(C)O)C3 (stereo unspecified)	mutagenic call	active; positive
CC1(C)C[C@H]2C=C(C=O)[C@]34C[C@]3(C(=O)O[C@@H]4O)[C@H]2C1	mutagenic call	active; positive

Lab note: next compound to report on.
Reported mutagenic call, compound COP(=O)(OC)C(O)C(Cl)(Cl)Cl (stereo unspecified) : ____
inactive; negative

* * *

# Tested on: CCRIS mutagenicity, Ames/micronucleus/aberration tests
# Protocol notes: CCRIS mutagenicity studies
# Protocol conditions: Test System: E. coli; Strain/Indicator: WP2uvrA/pKM101; Metabolic Activation: None; Method: Preincubation
Calls of active or inactive are those of the source. The rule behind the calls is not given here.
Parameter: mutagenic call

Compound	Endpoint value
CC(O)CN (stereo unspecified)	inactive; negative
FC(F)(F)c1ccc(Cl)c(Cl)c1	inactive; negative
Oc1ccccc1O	inactive; negative
O=C1C(Cl)=C(Cl)C(=O)C(Cl)=C1Cl	inactive; negative

* * *

# System: CCRIS mutagenicity, Ames/micronucleus/aberration tests
# Protocol notes: CCRIS mutagenicity studies
# Protocol conditions: Test System: AMES SALMONELLA TYPHIMURIUM; Strain/Indicator: TA102; Metabolic Activation: NONE; Method: PREINCUBATION
# Text: The CCRIS database contains chemical records with carcinogenicity, mutagenicity, tumor promotion, and tumor inhibition test results. It was developed by the National Cancer Institute (NCI). Data are derived from studies cited in primary journals, current awareness tools, NCI reports, and other sources. Test results have been reviewed by experts in carcinogenesis and mutagenesis. CCRIS provides historical information from the years 1985 - 2011. It is no longer updated. […]
Calls of active or inactive are those of the source. How the calls were made is not given here.
# output must be one of True for active, False for inactive

Take a look at these entries with their results.
Smiles entry	Target	Assigned label
CCC(=O)C(C)=O	CCRIS mutagenicity, Ames/micronucleus/aberration tests	False
O=C(O)CCC(=O)O	CCRIS mutagenicity, Ames/micronucleus/aberration tests	False
O=C(O)[C@H](O)[C@@H](O)C(=O)O	CCRIS mutagenicity, Ames/micronucleus/aberration tests	False
O=C1C(=O)c2ccccc2-c2ccccc21	CCRIS mutagenicity, Ames/micronucleus/aberration tests	False
CCOC(C)=O	CCRIS mutagenicity, Ames/micronucleus/aberration tests	False
CC(C)[N+](=O)[O-]	CCRIS mutagenicity, Ames/micronucleus/aberration tests	True
CC(=O)CCC(C)=O	CCRIS mutagenicity, Ames/micronucleus/aberration tests	False
CS(C)(=O)=O	CCRIS mutagenicity, Ames/micronucleus/aberration tests	False

Kindly provide the recorded test outcome for the following molecule: Oc1ccccc1O
False
